Documented protein stability index across a set of sequences
test system: Saccharomyces cerevisiae; assay: protein stability index of tFT-peptide fusion (C-terminal peptide) (PSI (0-1 scale)); higher = more stable (slower turnover); conditions: genetic background: wild type; temperature: 30 C;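 note: PSI is a weighted mean of sequencing reads over stability bins, variants kept only with over 10 reads, mCherry proximal and sfGFP distal, peptide attached via GGGS linker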
OBSERVED_PROPERTY: protein stability index

{"SEQUENCE_INPUT": "FLFWVLLVGCSF", "OBSERVED_PROPERTY": "protein stability index", "RESULT_NUMBER": 0.304}
{"SEQUENCE_INPUT": "KKQKEKEKLVYC", "OBSERVED_PROPERTY": "protein stability index", "RESULT_NUMBER": 0.733}
{"SEQUENCE_INPUT": "GGYRFCSKYKSE", "OBSERVED_PROPERTY": "protein stability index", "RESULT_NUMBER": 0.673}
{"SEQUENCE_INPUT": "VPAVGGFLMFIG", "OBSERVED_PROPERTY": "protein stability index", "RESULT_NUMBER": 0.638}
{"SEQUENCE_INPUT": "YCAMVSVGVVGG", "OBSERVED_PROPERTY": "protein stability index", "RESULT_NUMBER": 0.534}
{"SEQUENCE_INPUT": "TLQRARTGSTPK", "OBSERVED_PROPERTY": "protein stability index", "RESULT_NUMBER": 0.684}
{"SEQUENCE_INPUT": "NSVHVRGRFITK", "OBSERVED_PROPERTY": "protein stability index", "RESULT_NUMBER": 0.678}
{"SEQUENCE_INPUT": "SSGFVWVGVCVG", "OBSERVED_PROPERTY": "protein stability index", "RESULT_NUMBER": 0.5}
{"SEQUENCE_INPUT": "VGPLYFPWSLNF", "OBSERVED_PROPERTY": "protein stability index", "RESULT_NUMBER": 0.692}
{"SEQUENCE_INPUT": "VTCRALTFSLLG", "OBSERVED_PROPERTY": "protein stability index", "RESULT_NUMBER": 0.635}
{"SEQUENCE_INPUT": "RCGLVGILCSSI", "OBSERVED_PROPERTY": "protein stability index", "RESULT_NUMBER": 0.563}
{"SEQUENCE_INPUT": "LGFGCVYCGEAW", "OBSERVED_PROPERTY": "protein stability index", "RESULT_NUMBER": 0.689}
{"SEQUENCE_INPUT": "RKKNVYGKKIKI", "OBSERVED_PROPERTY": "protein stability index", "RESULT_NUMBER": 0.656}
{"SEQUENCE_INPUT": "RKKKTRGKEKRR", "OBSERVED_PROPERTY": "protein stability index", "RESULT_NUMBER": 0.683}
{"SEQUENCE_INPUT": "WTLSDTRHVLPV", "OBSERVED_PROPERTY": "protein stability index", "RESULT_NUMBER": 0.668}
{"SEQUENCE_INPUT": "DCYFNVHFKSIG", "OBSERVED_PROPERTY": "protein stability index", "RESULT_NUMBER": 0.654}
{"SEQUENCE_INPUT": "IGFSPSFQLYSA", "OBSERVED_PROPERTY": "protein stability index", "RESULT_NUMBER": 0.721}
{"SEQUENCE_INPUT": "SRFSRLHPAFPV", "OBSERVED_PROPERTY": "protein stability index", "RESULT_NUMBER": 0.759}
{"SEQUENCE_INPUT": "GWNRVGDWGVCG", "OBSERVED_PROPERTY": "protein stability index", "RESULT_NUMBER": 0.736}
{"SEQUENCE_INPUT": "LNSTDMNKKKFK", "OBSERVED_PROPERTY": "protein stability index", "RESULT_NUMBER": 0.719}
{"SEQUENCE_INPUT": "PPPYHPDATFTT", "OBSERVED_PROPERTY": "protein stability index", "RESULT_NUMBER": 0.706}
{"SEQUENCE_INPUT": "SRETRRRENPAK", "OBSERVED_PROPERTY": "protein stability index", "RESULT_NUMBER": 0.677}
{"SEQUENCE_INPUT": "GSSAVGWGGVWW", "OBSERVED_PROPERTY": "protein stability index", "RESULT_NUMBER": 0.796}
{"SEQUENCE_INPUT": "GGGVGCRSRGAG", "OBSERVED_PROPERTY": "protein stability index", "RESULT_NUMBER": 0.595}
{"SEQUENCE_INPUT": "VTSVCGYVRIWW", "OBSERVED_PROPERTY": "protein stability index", "RESULT_NUMBER": 0.71}
{"SEQUENCE_INPUT": "FPLPPLPPVPPP", "OBSERVED_PROPERTY": "protein stability index", "RESULT_NUMBER": 0.632}
{"SEQUENCE_INPUT": "SPISATISPSFR", "OBSERVED_PROPERTY": "protein stability index", "RESULT_NUMBER": 0.728}
{"SEQUENCE_INPUT": "PYFPLRPPSLPI", "OBSERVED_PROPERTY": "protein stability index", "RESULT_NUMBER": 0.675}
{"SEQUENCE_INPUT": "LRLCPAPYIPVL", "OBSERVED_PROPERTY": "protein stability index", "RESULT_NUMBER": 0.591}
{"SEQUENCE_INPUT": "PLSLPPRPFLHH", "OBSERVED_PROPERTY": "protein stability index", "RESULT_NUMBER": 0.735}
{"SEQUENCE_INPUT": "VLSSASRGSRCL", "OBSERVED_PROPERTY": "protein stability index", "RESULT_NUMBER": 0.707}
{"SEQUENCE_INPUT": "MKEKTNLETKDT", "OBSERVED_PROPERTY": "protein stability index", "RESULT_NUMBER": 0.691}
{"SEQUENCE_INPUT": "VVREAKGHGGCR", "OBSERVED_PROPERTY": "protein stability index", "RESULT_NUMBER": 0.667}
{"SEQUENCE_INPUT": "DVYFHTRSCGTP", "OBSERVED_PROPERTY": "protein stability index", "RESULT_NUMBER": 0.688}
{"SEQUENCE_INPUT": "DIYNRNKRRDIT", "OBSERVED_PROPERTY": "protein stability index", "RESULT_NUMBER": 0.644}
{"SEQUENCE_INPUT": "HSSLPQPRELRT", "OBSERVED_PROPERTY": "protein stability index", "RESULT_NUMBER": 0.674}
{"SEQUENCE_INPUT": "LPPLLAPPVSPL", "OBSERVED_PROPERTY": "protein stability index", "RESULT_NUMBER": 0.698}
{"SEQUENCE_INPUT": "PSFSPPQVPFPV", "OBSERVED_PROPERTY": "protein stability index", "RESULT_NUMBER": 0.721}
{"SEQUENCE_INPUT": "VWGVFGGCWCGV", "OBSERVED_PROPERTY": "protein stability index", "RESULT_NUMBER": 0.693}
{"SEQUENCE_INPUT": "PFAVKYIFEVWK", "OBSERVED_PROPERTY": "protein stability index", "RESULT_NUMBER": 0.591}
{"SEQUENCE_INPUT": "MALAVRVVFCGA", "OBSERVED_PROPERTY": "protein stability index", "RESULT_NUMBER": 0.371}
